target: human recombinant acetylcholinesterase (hAChE) (Homo sapiens, UniProt P22303); assay: biochemical; conditions: mean of at least three experiments; substrate ATCh; pH 7.4, 37 °C; read-out: hAChE IC50 ± SEM
Sequence (P22303 32-614): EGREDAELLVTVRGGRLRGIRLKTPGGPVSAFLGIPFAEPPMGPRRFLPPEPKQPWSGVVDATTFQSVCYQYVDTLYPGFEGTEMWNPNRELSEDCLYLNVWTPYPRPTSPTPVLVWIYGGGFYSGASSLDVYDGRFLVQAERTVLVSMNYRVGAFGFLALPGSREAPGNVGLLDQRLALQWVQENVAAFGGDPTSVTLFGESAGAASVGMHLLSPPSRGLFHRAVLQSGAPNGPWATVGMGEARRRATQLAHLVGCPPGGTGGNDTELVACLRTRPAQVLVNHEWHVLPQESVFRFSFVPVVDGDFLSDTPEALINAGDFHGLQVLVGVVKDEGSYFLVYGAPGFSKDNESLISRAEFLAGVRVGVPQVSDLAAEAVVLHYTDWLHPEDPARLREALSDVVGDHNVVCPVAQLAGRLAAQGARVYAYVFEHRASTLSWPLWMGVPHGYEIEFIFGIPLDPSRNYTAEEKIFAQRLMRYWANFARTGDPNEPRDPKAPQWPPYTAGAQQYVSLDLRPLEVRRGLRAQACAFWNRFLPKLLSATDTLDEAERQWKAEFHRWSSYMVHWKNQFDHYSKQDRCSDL
Note to self: IC50 under 30 µM means True, ties and anything higher get False.

{"compound-structure-string": "COc1ccc(NC(=O)NCCCCCCCNc2c3c(nc4ccc(OC)cc24)CCCC3)cc1.O=C(O)C(O)C(O)C(=O)O", "label-value": "True"}
{"compound-structure-string": "COc1ccc(NC(=S)NCCCNc2c3c(nc4ccc(OC)cc24)CCCC3)cc1.O=C(O)C(O)C(O)C(=O)O", "label-value": "True"}
{"compound-structure-string": "COc1ccc(NC(=S)NCCCCNc2c3c(nc4ccc(OC)cc24)CCCC3)cc1.O=C(O)C(O)C(O)C(=O)O", "label-value": "False"}
{"compound-structure-string": "COc1ccc(NC(=O)NCCNc2c3c(nc4ccc(OC)cc24)CCCC3)cc1.O=C(O)C(O)C(O)C(=O)O", "label-value": "False"}
{"compound-structure-string": "COc1ccc(NC(=S)NCCCCCCCCNc2c3c(nc4ccc(OC)cc24)CCCC3)cc1.O=C(O)C(O)C(O)C(=O)O", "label-value": "True"}
{"compound-structure-string": "COc1ccc(NC(=O)NCCCCCCCCNc2c3c(nc4ccc(OC)cc24)CCCC3)cc1.O=C(O)C(O)C(O)C(=O)O", "label-value": "True"}
{"compound-structure-string": "COc1ccc(NC(=O)NCCCNc2c3c(nc4ccc(OC)cc24)CCCC3)cc1.O=C(O)C(O)C(O)C(=O)O", "label-value": "True"}

---

molecular target: human recombinant acetylcholinesterase (hAChE) (Homo sapiens); test: biochemical; details: mean of at least three experiments; substrate ATCh; pH 7.4, 37 °C; read-out: hAChE IC50 ± SEM
pIC50: −log10 of the molar value.
metric: pIC50

{"compound-structure-string": "COc1ccc(NC(=O)NCCCCCNc2c3c(nc4ccc(OC)cc24)CCCC3)cc1.O=C(O)C(O)C(O)C(=O)O", "reported": 5.87}
{"compound-structure-string": "COc1ccc(NC(=S)NCCCCCCNc2c3c(nc4ccc(OC)cc24)CCCC3)cc1.O=C(O)C(O)C(O)C(=O)O", "reported": 4.99}
{"compound-structure-string": "COc1ccc(NC(=S)NCCCCCNc2c3c(nc4ccc(OC)cc24)CCCC3)cc1.O=C(O)C(O)C(O)C(=O)O", "reported": 5.31}

---

target: human recombinant acetylcholinesterase (hAChE) (Homo sapiens); construct: purchased Sigma-Aldrich (Prague, Czech Republic); experiment: biochemical; type: biochemical; conditions: ratio hBChE IC50/hAChE IC50
This listing pairs molecules with measured Selectivity for hAChE.

{"compound-structure-string": "COc1ccc(NC(=O)NCCCCCCCNc2c3c(nc4ccc(OC)cc24)CCCC3)cc1.O=C(O)C(O)C(O)C(=O)O", "Selectivity for hAChE": 0.98}
{"compound-structure-string": "COc1ccc(NC(=S)NCCCCCCCNc2c3c(nc4ccc(OC)cc24)CCCC3)cc1.O=C(O)C(O)C(O)C(=O)O", "Selectivity for hAChE": 0.79}
{"compound-structure-string": "COc1ccc(NC(=S)NCCCCCNc2c3c(nc4ccc(OC)cc24)CCCC3)cc1.O=C(O)C(O)C(O)C(=O)O", "Selectivity for hAChE": 2.71}
{"compound-structure-string": "COc1ccc(NC(=S)NCCCCCCCCNc2c3c(nc4ccc(OC)cc24)CCCC3)cc1.O=C(O)C(O)C(O)C(=O)O", "Selectivity for hAChE": 7.53}
{"compound-structure-string": "COc1ccc(NC(=O)NCCCNc2c3c(nc4ccc(OC)cc24)CCCC3)cc1.O=C(O)C(O)C(O)C(=O)O", "Selectivity for hAChE": 0.59}

---

target: human plasma butyrylcholinesterase (hBChE) (Homo sapiens, UniProt P06276); assay: biochemical; conditions: mean of at least three experiments; substrate BTCh; pH 7.4, 37 °C; read-out: hBChE IC50 ± SEM
Sequence (P06276 29-602): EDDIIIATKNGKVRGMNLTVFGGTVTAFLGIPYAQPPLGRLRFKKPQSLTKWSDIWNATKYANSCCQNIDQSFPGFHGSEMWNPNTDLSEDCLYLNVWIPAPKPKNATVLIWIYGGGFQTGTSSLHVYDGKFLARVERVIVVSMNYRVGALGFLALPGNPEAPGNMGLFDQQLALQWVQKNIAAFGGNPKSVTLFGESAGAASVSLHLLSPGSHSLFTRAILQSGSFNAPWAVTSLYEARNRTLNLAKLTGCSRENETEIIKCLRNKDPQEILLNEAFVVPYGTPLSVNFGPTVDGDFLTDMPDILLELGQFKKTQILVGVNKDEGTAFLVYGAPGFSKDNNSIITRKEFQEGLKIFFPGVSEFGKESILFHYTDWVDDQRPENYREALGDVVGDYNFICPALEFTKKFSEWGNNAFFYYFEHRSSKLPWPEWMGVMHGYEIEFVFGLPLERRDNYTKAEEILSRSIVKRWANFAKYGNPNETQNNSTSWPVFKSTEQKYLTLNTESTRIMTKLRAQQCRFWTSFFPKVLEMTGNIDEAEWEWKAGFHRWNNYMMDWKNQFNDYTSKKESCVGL
pIC50: −log10 of the molar value.
This listing pairs compounds with measured pIC50.

{"compound-structure-string": "COc1ccc(NC(=O)NCCCCNc2c3c(nc4ccc(OC)cc24)CCCC3)cc1.O=C(O)C(O)C(O)C(=O)O", "pIC50": 5.03}
{"compound-structure-string": "COc1ccc(NC(=S)NCCNc2c3c(nc4ccc(OC)cc24)CCCC3)cc1.O=C(O)C(O)C(O)C(=O)O", "pIC50": 5.99}
{"compound-structure-string": "COc1ccc(NC(=S)NCCCCCCCCNc2c3c(nc4ccc(OC)cc24)CCCC3)cc1.O=C(O)C(O)C(O)C(=O)O", "pIC50": 4.99}
{"compound-structure-string": "COc1ccc(NC(=S)NCCCCNc2c3c(nc4ccc(OC)cc24)CCCC3)cc1.O=C(O)C(O)C(O)C(=O)O", "pIC50": 5.22}
{"compound-structure-string": "COc1ccc(NC(=O)NCCCCCCNc2c3c(nc4ccc(OC)cc24)CCCC3)cc1.O=C(O)C(O)C(O)C(=O)O", "pIC50": 5.24}
{"compound-structure-string": "COc1ccc(NC(=O)NCCCCCCCCNc2c3c(nc4ccc(OC)cc24)CCCC3)cc1.O=C(O)C(O)C(O)C(=O)O", "pIC50": 5.87}
{"compound-structure-string": "COc1ccc(NC(=S)NCCCNc2c3c(nc4ccc(OC)cc24)CCCC3)cc1.O=C(O)C(O)C(O)C(=O)O", "pIC50": 5.06}
{"compound-structure-string": "COc1ccc(NC(=O)NCCCCCNc2c3c(nc4ccc(OC)cc24)CCCC3)cc1.O=C(O)C(O)C(O)C(=O)O", "pIC50": 4.96}
{"compound-structure-string": "COc1ccc(NC(=O)NCCCNc2c3c(nc4ccc(OC)cc24)CCCC3)cc1.O=C(O)C(O)C(O)C(=O)O", "pIC50": 4.80}
